Test system: SR leukemia
Experiment Summary: NCI tumour cell line growth inhibition, 48 h; in the data active = GI50 below about 0.43 µM; inactive = the rest
Give your call using only these classes: yes (1) (active), no (0) (inactive)

Query: Can you look up the reported call for `C[C@H]1[C@H]2[C@H]3CC[C@@H]4[C@@]5(C)C/C(=C/c6cccnc6)C(=O)C(C)(C)[C@@H]5CC[C@@]4(C)[C@]3(C)CC[C@]23CO[C@]1(C)[C@@H](C(=O)/C=C\c1cccnc1)C3` for me?
Result: yes (1)

Query: Can you look up the reported call for `C[C@H](CCCNCCCNCCCN)[C@H]1CC[C@H]2[C@@H]3[C@H](OCCCN)C[C@H]4C[C@H](OCCCN)CC[C@]4(C)[C@H]3C[C@H](OCCCN)[C@]12C` for me?
Result: yes (1)

Query: Can you look up the reported call for CCN(CC)CCCC(C)N=c1cc(Nc2cc(=NC(C)CCCN(CC)CC)c3cc(OC)ccc3o2)oc2ccc(OC)cc12 (stereo not drawn) for me?
Result: no (0)

====

Tested on: MDA-MB-231 breast
Experiment Summary: NCI tumour cell line growth inhibition, 48 h
For each entry below, report its TGI value.

# TGI (compound: `C[C@H]1[C@H]2[C@H]3CC[C@@H]4[C@@]5(C)C/C(=C/c6cccnc6)C(=O)C(C)(C)[C@@H]5CC[C@@]4(C)[C@]3(C)CC[C@]23CO[C@]1(C)[C@@H](C(=O)/C=C\c1cccnc1)C3` ) is 8.01 µM

# TGI (compound: `COc1cc(-c2nn(-c3cccc(NC(=O)c4ccc(N5CCOCC5)c(C(F)(F)F)c4)c3)cc2-c2ccncc2)ccc1Cl` ) is 3.54 µM

# TGI (compound: COC1O[C@H]2[C@H]3[C@@H]1[C@@H](OS(=O)(=O)c1ccc(C)cc1)C(=O)N3C[C@H]2O (some centres undefined) ) is > 100 µM

# TGI (compound: `COc1cccc(Cc2cc(=O)c3ccc(C)nc3[nH]2)c1` ) is > 100 µM

# TGI (compound: `COc1ccc2c(ccc3c(COC(=O)NC(C)C)c(COC(=O)NC(C)C)n(C)c32)c1` ) is 34.2 µM

# TGI (compound: `CNC(=O)Oc1cc(C)c(/C=C/c2cncc(C(=O)NC)c2)c(C)c1` ) is > 25 µM

# TGI (compound: `C=CCSSCC=C` ) is > 100 µM

# TGI (compound: `CNC(=O)CN(C)C(=O)CCC(=O)N(C)C` ) is > 100 µM

# TGI (compound: CCOC(=O)C1=CC(C)(C(=O)OCC)Nc2c(nc(OC)[nH]c2=O)N1 (centres undefined) ) is > 10 µM

====

Tested on: HL-60(TB) leukemia
Experiment Summary: NCI tumour cell line growth inhibition, 48 h
Criterion: TGI meeting or surpassing 4 µM. Met: y. Not met: n.

Query: Test whether the molecule `c1ccc(C[N+]23CN4CN(CN(C4)C2)C3)cc1` records TGI of 4 µM or higher.
Result: y

Query: Test whether the molecule `CN(C)CCCNC(=O)c1cncnc1Nc1ccc(OCc2cccc(F)c2)c(Cl)c1` records TGI of 4 µM or higher.
Result: n

Query: Test whether the molecule CC(C)(C)OC(=O)C1CC[C@@H](CC(=O)Oc2ccc([N+](=O)[O-])cc2)N1 (stereo partly specified) records TGI of 4 µM or higher.
Result: y

Query: Test whether the molecule `COc1ccc(-n2c(N)c(C#N)c(C#N)c2-c2ccccc2)cc1` records TGI of 4 µM or higher.
Result: y

Query: Test whether the molecule `COc1cc(/C=C\c2cccnc2)cc(OC)c1OC` records TGI of 4 µM or higher.
Result: y

Query: Test whether the molecule `CN(CC(=O)O)c1ncc2c(n1)-c1ccccc1OC2` records TGI of 4 µM or higher.
Result: y

Query: Test whether the molecule `COC(=O)CSC(=S)Nc1nnc(NC(=S)SCOC(C)=O)n1C(=S)SCC(=O)OC` records TGI of 4 µM or higher.
Result: y

Query: Test whether the molecule O=C1OCc2cc3cc4c(cc3c(-c3ccc5c(c3)OCO5)c21)OCO4 (tested in a mixture with another compound) records TGI of 4 µM or higher.
Result: y

Query: Test whether the molecule `O=c1c2ccccc2c2ccccc2c(=O)n1Cc1ccc2c(c1)OCO2` records TGI of 4 µM or higher.
Result: y

Query: Test whether the molecule CN1CC(CNC(=O)OCc2ccccc2)CC2c3cccc4c3c(cn4C)CC21 (stereo unspecified) records TGI of 4 µM or higher.
Result: n

Query: Test whether the molecule `C#CCCCOc1ncccn1` records TGI of 4 µM or higher.
Result: y

Query: Test whether the molecule `O=C(NN=C1CCCCC1)c1[nH]c2ccc(F)cc2c1-c1ccccc1` records TGI of 4 µM or higher.
Result: y

Query: Test whether the molecule CSc1ncnc2c1ncn2C1OC(CO)C(O)OC1O (stereo unspecified) records TGI of 4 µM or higher.
Result: y

Query: Test whether the molecule `CCc1cc2c(cc1N1CCC(N3CCOCC3)CC1)C(C)(C)c1[nH]c3cc(C#N)ccc3c1C2=O` records TGI of 4 µM or higher.
Result: y

Query: Test whether the molecule `Cc1nn(C)cc1P(=S)(c1ccccc1)c1ccccc1` records TGI of 4 µM or higher.
Result: y

Query: Test whether the molecule `C[C@H]1[C@H]2[C@H]3CC[C@@H]4[C@@]5(C)C/C(=C/c6cccnc6)C(=O)C(C)(C)[C@@H]5CC[C@@]4(C)[C@]3(C)CC[C@]23CO[C@]1(C)[C@@H](C(=O)/C=C\c1cccnc1)C3` records TGI of 4 µM or higher.
Result: n

Query: Test whether the molecule `Cl/C(=C\C=Nc1ccc(I)cc1)c1ccc2ccccc2c1` records TGI of 4 µM or higher.
Result: y

Query: Test whether the molecule `CC(=O)O[C@H]1C(=O)[C@@]2(C)[C@H]([C@H](OC(=O)c3ccccc3)[C@]3(O)C[C@H](OC(=O)[C@H](O)[C@@H](NC(=O)C(C)(C)C)c4ccccc4)C(C)=C1C3(C)C)[C@]1(OC(C)=O)CO[C@@H]1C[C@@H]2O` records TGI of 4 µM or higher.
Result: n

Query: Test whether the molecule `CCCCC(=O)OC[n+]1ccc2c(C)c3[nH]c4ccccc4c3c(C)c2c1` records TGI of 4 µM or higher.
Result: n

src = PubChem BioAssay (NCI)
